Assay: Spectrum analysis of detection chip before blood sample is deposited (transmittance of refractive index adjuster at 650 nm)
Format: physicochemical
Settings: absorption peak wavelength of WST-4
Protocol: The outline of an evaluation system used in spectrum analysis will be described below. Further, the outline of the evaluation system is illustrated in FIG. 6. Light source: Halogen light source SPL-2H (KLV Co., Ltd.) Conforming fiber: Core diameter=200μ or more Spectrometer: Small fiber optical spectrometer USB2000+(Ocean Optics, Inc.) The spectrum analysis was performed using the blood glucose value detection chips obtained in each of Embodiments and Comparative Embodiments. […]
Quantity Name: Transmittance 650 nm (Coloring reagent absorption peak wavelength)

Compound	Value Observed
O=[N+]([O-])c1ccc(-[n+]2nc(-c3ccc(S(=O)(=O)[O-])cc3S(=O)(=O)[O-])nn2-c2ccc(I)cc2)cc1.[Na+] [Wst-1, reference compound]	×
COc1cc([N+](=O)[O-])ccc1-n1nc(-c2ccc(S(=O)(=O)[O-])cc2S(=O)(=O)[O-])n[n+]1-c1ccc([N+](=O)[O-])cc1.[Na+] [Wst-8, reference compound]	×
CCN(CC)c1ccc(C(=C2C=CC(=[N+](CC)CC)C=C2)c2ccc(S(=O)(=O)[O-])cc2S(=O)(=O)[O-])cc1.[Na+] [Acid Blue 1, reference compound]	×

====

Assay: Refractive index increasing capability of refractive index adjuster (refractometer, aqueous solutions)
Assay type: physicochemical
Conditions: increase amount of the refractive index per 1 [mg/ml]; inclination of approximate straight line, aqueous solutions 0 to 350 mg/ml
Quantity Name: Refractive index increasing capability
// return a plain number; no unit text

Worked examples, 5 compounds total:
Compound	Quantity Name	Value Observed
O=S(=O)(O)c1cc(S(=O)(=O)O)c2c(/N=N/c3ccccc3)c(O)ccc2c1	Refractive index increasing capability	0.000296
O=[N+]([O-])c1ccc(-[n+]2nc(-c3ccc(S(=O)(=O)[O-])cc3S(=O)(=O)[O-])nn2-c2ccc(I)cc2)cc1.[Na+] [Wst-1, reference compound]	Refractive index increasing capability	0.000174
COc1cc([N+](=O)[O-])ccc1-n1nc(-c2ccc(S(=O)(=O)[O-])cc2S(=O)(=O)[O-])n[n+]1-c1ccc([N+](=O)[O-])cc1.[Na+] [Wst-8, reference compound]	Refractive index increasing capability	0.000189
O=S(=O)([O-])c1ccc2c(N=Nc3ccc(S(=O)(=O)[O-])c4ccccc34)c(O)c(S(=O)(=O)[O-])cc2c1.[Na+].[Na+].[Na+]	Refractive index increasing capability	0.000381
O=C([O-])C1=NN(c2ccc(S(=O)(=O)[O-])cc2)C(=O)C1N=Nc1ccc(S(=O)(=O)[O-])cc1.[Na+].[Na+].[Na+] (centres unmarked)	Refractive index increasing capability	0.000277

Q: For O=S(=O)(O)c1cccc(S(=O)(=O)O)c1 [DSB, 1,3-benzene disulfonate] , what is its reported Refractive index increasing capability?
Ans: 0.000126

Q: Then what about the compound OC[C@H]1O[C@H](O[C@]2(CCl)O[C@H](CCl)[C@@H](O)[C@@H]2O)[C@H](O)[C@@H](O)[C@H]1Cl ?
Ans: 0.000129

Q: And OC[C@H]1O[C@H](O[C@H]2O[C@H](CO)[C@@H](O)[C@H](O)[C@H]2O)[C@H](O)[C@@H](O)[C@@H]1O ?
Ans: 0.000109
